tested on: HaCat; assay: Cytotoxic Profiling of Annotated Libraries Using Quantitative High-Throughput Screening (AID 1296008); settings: Five cell lines viability, CellTiter-Glo ATP luminescence, 48-72 h; also: nearly all actives have a fitted effect of over 60% in size
Records with an inconclusive call do not appear. The source made the active and inactive calls. Calls follow the shape of the dose curve; as a rule, active = well fitted inhibition curve with a large enough effect; inconclusive = small, poorly fitted or top-dose-only effect; inactive = flat fitted curve, though single readings scatter.
The reply should be one of these categories: yes (active), no (inactive)

Study these solved cases before continuing.
| substance.smiles | label |
| --- | --- |
| CCOC(=O)[C@H](CCc1ccccc1)N[C@@H](C)C(=O)N1[C@@H](C(=O)O)C[C@H]2CCC[C@@H]21 | yes |
| CC(=O)O[C@H]1C[C@@H]2CC[C@H]3[C@H]4C[C@H]([N+]5(C)CCCCC5)[C@@H](OC(C)=O)[C@@]4(C)CC[C@@H]3[C@@]2(C)C[C@H]1[N+]1(C)CCCCC1 | no |
| CCCCCCCCc1ccc(CCC(N)(CO)CO)cc1 | yes |
| C[C@H](NC(=O)C(C#N)=Cc1cccc(Br)n1)c1ccccc1 | yes |
| C[C@@]12C[C@@]3(O)O[C@@H](O1)[C@]1(COC(=O)c4ccccc4)[C@@H]3C[C@@]12O[C@@H]1O[C@H](CO)[C@@H](O)[C@H](O)[C@@H]1O | no |

Prompt line: Tell me the recorded outcome of this test for `Cc1cncc2cccc(S(=O)(=O)N3CCCN(C(=O)CN)C[C@@H]3C)c12` .
Response line: yes

Prompt line: Please share the test call associated with `CO[C@@H]1[C@@H](O)[C@H](O)[C@@H](n2c3c(Cl)cccc3c3c4c(c5c6cccc(Cl)c6[nH]c5c32)C(=O)NC4=O)O[C@@H]1CO` .
Response line: yes

Prompt line: Just curious, what result did `Cn1cc(CNCC2CCN(c3ncc(C(=O)NO)cn3)CC2)c2ccccc21` get here?
Response line: yes

---

test: Quantitative High-Throughput drug screen in 47 multiple myeloma cell lines against the NCATS MIPE library collection: KMS20_JCRB cell viability assay (AID 1918973); details: CellTiter-Glo ATP, 48 h; series mostly up to 45.8 µM; also: nearly all actives have a fitted effect of over 45% in size
Inconclusive results are not listed. Calls of active or inactive are those of the source. The call rests on the fitted dose curve; in most records, active means well fitted cell-killing curve with a large enough effect; inconclusive means small, poorly fitted or top-dose-only effect, or effect the other way; inactive means no such curve, though single readings can be large or run the other way.
Select the correct class. Options are active, inactive and nothing else.

Solved cases below.
| substance.smiles | label |
| --- | --- |
| Cn1cc(CNCC2CCN(c3ncc(C(=O)NO)cn3)CC2)c2ccccc21 | active |
| Cn1cc(-c2cnn3c(N)c(Br)c([C@H]4CCCNC4)nc23)cn1 | active |
| C=C1C[C@@]2(O)O[C@@]3(C[C@H]2C(C)C)[C@H](C)CC[C@H]13 | inactive |
| C[C@H](NCc1ccc(OCc2cccc(F)c2)cc1)C(N)=O | active |

Now examine the next entry.
Prompt line: Status in this test for `Nc1nc(N)c2nc(-c3cccc(O)c3)c(-c3cccc(O)c3)nc2n1` ?
Response line: active

---

assay: qHTS of pediatric cancer cell lines to identify multiple opportunities for drug repurposing: Confirmatory screen for Saos-2 cells (AID 1347127); details: Saos-2 osteosarcoma cell viability; series mostly up to 45.9 µM; also: nearly all actives have a fitted effect of over 60% in size
Records with an inconclusive call do not appear. Active and inactive are the calls of the source. Calls come from the whole dose curve; as a rule, active = well fitted cell-killing curve with a large enough effect; inconclusive = small, poorly fitted or top-dose-only effect, or effect the other way; inactive = no such curve, though single readings can be large or run the other way. Residues, ends and D or L forms follow the SMILES beside them. *: point of attachment. Cbz = O=C(OCc1ccccc1)*
Outcome field: choose from 1 for active, 0 for inactive

Completed entries (count: 8):
| molecule | label |
| --- | --- |
| CC(C)C[C@@H](C=O)NC(=O)[C@H](CC(C)C)NC(=O)[C@H](CC(C)C)NC(=O)OCc1ccccc1 (Cbz-Leu-Leu-Leu-aldehyde) | 1 |
| N#CNC(=NCCCCCCOc1ccc(Cl)cc1)Nc1ccncc1 | 1 |
| COc1cc2ncnc(Nc3cccc(Br)c3)c2cc1OC | 0 |
| C[C@H](NCc1ccc2c(c1)nc(NC(=O)c1ccc(-c3cn[nH]c3)s1)n2CCc1ccccc1)C(C)(C)C | 1 |
| CN(CC(=O)N(Cc1ccc(C2CCCCC2)cc1)c1ccc(C(=O)O)c(O)c1)S(=O)(=O)c1c(F)c(F)c(F)c(F)c1F | 1 |
| FC(F)c1nc2ccccc2n1-c1nc(N2CCOCC2)nc(N2CCOCC2)n1 | 1 |
| Oc1ccc(-c2ccc(-c3cc(Nc4cccc(CNC5CC5)c4)n[nH]3)cc2)c(O)c1 | 1 |
| COC(=O)C1C2CC3c4[nH]c5cc(OC)ccc5c4CCN3CC2CC(OC(=O)c2cc(OC)c(OC)c(OC)c2)C1OC (centres undefined) | 1 |

# next molecule below
Prompt line: Which outcome was assigned to `CC(=O)NCC(=O)N1[C@H]2CC[C@H]1c1cc(Nc3ncc(C(F)(F)F)c(NC4CCC4)n3)ccc12` in this test?
Response line: 1

---

Kindly supply the reported Potency values for the records listed here.
assay: Quantitative High-Throughput drug screen in 47 multiple myeloma cell lines against the NCATS MIPE library collection: JIM1_ECACC cell viability assay (AID 1918964; also: potency is read from the fitted curve at half-maximal effect); details: JIM1 myeloma viability, CellTiter-Glo ATP luminescence, 48 h; series mostly up to 45.8 µM
Results filed as inconclusive are left out. The source made the active and inactive calls. Calls come from the whole dose curve; as a rule, active = well fitted cell-killing curve with a large enough effect; inconclusive = small, poorly fitted or top-dose-only effect, or effect the other way; inactive = no such curve, though single readings can be large or run the other way.

Here are 4 molecules together with their reported answers.
| substance.smiles | result |
| --- | --- |
| CCNC(=O)Nc1ccc(-c2nc3c(c(N4CCOC[C@H]4C)n2)CCN(C2COC2)C3)cc1 | 132 nM (active) |
| CN1CCCN(C(=O)c2cccc(-c3ccc(C=C4C(=O)Nc5ccc(Cl)cc54)o3)c2)CC1 | 6620 nM (active) |
| CNC(=O)c1cccc(-c2ccc3c(N4CCOC[C@H]4C)nc(N4CCOC[C@H]4C)nc3n2)c1 | 13.2 nM (active) |
| N#CNC(=NCCCCCCOc1ccc(Cl)cc1)Nc1ccncc1 | 29.6 nM (active) |

Next up:
Prompt line: Please give the documented Potency of `Cc1ccc2nc(NCCN)c3ncc(C)n3c2c1`
Response line: 3320 nM (active)

---

Test: qHTS of pediatric cancer cell lines to identify multiple opportunities for drug repurposing: Primary screen for A673 cells (AID 1347092); also: nearly all actives have a fitted effect of over 45% in size
Details: A673 Ewing sarcoma viability, CellTiter-Glo ATP luminescence, 48 h; series mostly up to 46 µM
Experimental: Drug repurposing or repositioning has been offered as a strategy for drug development in oncology programs. […] We employed a titration-based paradigm (quantitative high-throughput screening or qHTS), where all compounds were tested at multiple concentrations for their effect on cell viability. […] Shen, M et al. Quantitative high-throughput phenotypic screening of pediatric cancer cell lines identifies multiple opportunities for drug repurposing. […]
Records with an inconclusive call do not appear. The source made the active and inactive calls. Calls follow the shape of the dose curve; as a rule, active = well fitted cell-killing curve with a large enough effect; inconclusive = small, poorly fitted or top-dose-only effect; inactive = no such curve, though single readings can be large or run the other way.
Your answer must be one of the following: Yes for active, No for inactive

| molecule | label |
| --- | --- |
| CC(=O)N[C@H]1[C@@H]([C@H](O)[C@H](O)CO)OC(C(=O)O)=C[C@@H]1N=C(N)N | No |
| COc1cc2ncnc(Nc3cccc(Br)c3)c2cc1OC | Yes |
| CC(N[C@H]1CCCC[C@H]1NC(=O)c1ccc(Cl)cc1)c1cccc2ccccc12 (some centres not stated) | Yes |

Prompt line: Field: outcome | Entry: `O=C1NCCc2[nH]c(-c3ccncc3)cc21`
Response line: Yes

Prompt line: Which outcome was assigned to `CC[C@@]1([C@@H]2O[C@@H]([C@H]3O[C@@](O)(CO)[C@H](C)C[C@H]3C)C[C@H]2C)CC[C@H]([C@]2(C)CC[C@]3(C[C@H](O)[C@@H](C)[C@@H]([C@@H](C)[C@@H](OC)[C@H](C)C(=O)O)O3)O2)O1` in this test?
Response line: Yes

Prompt line: Record lookup: outcome of this test for `C=C(C)[C@@H]1CC[C@]2(C)CC[C@]3(C)[C@H](CC[C@@H]4[C@@]5(C)CC[C@H](O)C(C)(C)[C@H]5CC[C@]43C)[C@@H]12` ?
Response line: No

Prompt line: Status in this test for `C=CCNC1=C2C[C@@H](C)C[C@H](OC)[C@@H](O)[C@@H](C)C=C(C)[C@H](OC(N)=O)[C@@H](OC)C=CC=C(C)C(=O)NC(=CC1=O)C2=O` ?
Response line: Yes

---

assay: qHTS of pediatric cancer cell lines to identify multiple opportunities for drug repurposing: Primary screen for LAN-5 cells (AID 1347100); conditions: LAN-5 neuroblastoma viability, CellTiter-Glo luminescence, 48 h; series mostly up to 46 µM; also: potency is read from the fitted curve at half-maximal effect
Records with an inconclusive call do not appear. Activity calls are given as the source filed them. Calls come from the whole dose curve; as a rule, active = well fitted cell-killing curve with a large enough effect; inconclusive = small, poorly fitted or top-dose-only effect; inactive = no such curve, though single readings can be large or run the other way.
endpoint: Potency

Use these answered entries as a reference point.
| compound | result |
| --- | --- |
| CC(C(C)N1CC(=O)NC(=O)C1)N1CC(=O)NC(=O)C1 (stereo unspecified) | 743 nM (active) |
| CC(=O)N[C@@H]1[C@H](O[C@@H]2c3ccc(c(Cl)c3)Oc3cc4cc(c3O[C@H]3O[C@H](CO)[C@@H](O)[C@H](O)[C@H]3NC(=O)CCCCCCCC(C)C)Oc3ccc(cc3Cl)C[C@H]3NC(=O)[C@H](N)c5ccc(O)c(c5)Oc5cc(O)cc(c5)[C@H](NC3=O)C(=O)N[C@H]4C(=O)N[C@H]3C(=O)N[C@@H]2C(=O)N[C@@H](C(=O)O)c2cc(O)cc(O[C@H]4O[C@H](CO)[C@@H](O)[C@H](O)[C@H]4O)c2-c2cc3ccc2O)O[C@H](CO)[C@@H](O)[C@@H]1O | inactive |
| C[C@@H](NCc1cc2ccccc2[nH]1)c1cccc2ccccc12 | inactive |
| COc1cc(CCc2cc(NC(=O)c3ccc(N4C[C@@H](C)N[C@@H](C)C4)cc3)n[nH]2)cc(OC)c1 | 4180 nM (active) |
| CCCc1nc(C(C)(C)O)c(C(=O)O)n1Cc1ccc(-c2ccccc2-c2nn[nH]n2)cc1 | inactive |

Kindly give each listed record's Potency.
1. O=C1c2cccc(O)c2C(=O)c2c(O)cc(CO)cc21
2. COc1cc2c(cc1O)CCC1C2CC[C@@]2(C)C1CC[C@@H]2O (stereo partly specified)
3. COc1cc(OC)c(C=CS(=O)(=O)Cc2ccc(OC)c(NCC(=O)O)c2)c(OC)c1
4. COc1ccc(C[C@@H](C)[C@@H](C)Cc2ccc(OC)c(OC)c2)cc1OC
5. O=C(NC1CC1)c1cccc(-c2ccc3c(NC(=O)C4CC4)n[nH]c3c2)c1
6. COc1ccnc2[nH]cc(C(=O)C(=O)N3CCN(C(=O)c4ccccc4)C[C@@H]3C)c12
7. C[C@H](NCc1ccc2c(c1)nc(NC(=O)c1ccc(-c3cn[nH]c3)s1)n2CCc1ccccc1)C(C)(C)C
8. Cc1nc(NC(=O)N2CCC[C@@H]2C(N)=O)sc1-c1ccnc(C(C)(C)C(F)(F)F)c1

Response line:
1. inactive
2. inactive
3. 148 nM (active)
4. 187 nM (active)
5. 2090 nM (active)
6. inactive
7. 833 nM (active)
8. 5900 nM (active)
